system_name: T1, recombinant human CD63 extracellular loop 2 expressed with a C-terminal Myc-Myc-hexahistidine (human)
T1 construct: also called hCD63 EC loop 2-MMH; human CD63 EC loop 2-MMH
procedure_summary: SPR Biacore, mAb captured, 25C
Label 1 when koff is at or above 0.0006 s⁻¹; otherwise label -1.

Qu. Determine whether this binder has koff no lower than 0.0006 s⁻¹: H2M12450N (antibody, V domains shown, also called H2aM12450N; mAb12450) VH: QVQLQESGPKVVKPSETLSLTCTVSGGSISSYYWNWIRQSPGKGLEWIGYTKRGYTDYNPSLRSRVTISEDTSKNQFSLRISSVTAADTAVYYCAQMGWGSHAFDMWGQGTMVAVSS VL: EIVLTQSPGTLSLSPGERATLSCRASQSVNSRYLAWYQQKPGQAPRLLIYGASSRATGIPDRCSGSGSGTDFTLTISRLEPEDFAVYYCQQYGSSPWTFGQGTKVEIK
Ans. -1

Qu. Reported koff reaches at least 0.0006 s⁻¹ for H2M13022N (antibody, V domains shown, also called H2bM13022N) VH: QVQLVESGGGLVQPGGSLRLSCAASGFIFGDYYINWIRQAPGKGLQWVSYTSSSGSTTYYEDSVKGRFTMSRDNAKNLVYLQMNSLRAEDTAAYYCVRDLRYNDGLDVWGQGTTVIVSS VL: DILLTQSPSSLSAFVGDRVTITCRASQNIRTYLNWYQQKPGRAPKLLVYAASTLQSGVPSRFSGSGSGTDFTLTISSLQPEDFASYFCQQSYDNPPITFGQGTRLAIK ?
Ans. 1

Qu. Hi team, for H1M12451N (antibody, V domains shown) VH: QVQLQESGPGLMKPSETLSLTCTVSGGSFSSYYWNWIRQSPGKGLEWIGYIRYSGDTNYKPSLKSRFTISIDTSKNLFSLRLKSVTAADTAVYYCARMGLGSDAFDIWGQGTMVTVSS VL: EIVLTQSPGTLSLSPGERATLSCRASQSVNNNYLAWYQQKPGQAPRLLIYGVFNRATNIPDRFSGSGSGTDFTLTISRLEPEDFAVYYCQQYGSSPWTFGQGTKVEIK , is the recorded koff at or above 0.0006 s⁻¹?
Ans. -1

Qu. Could you verify whether the entry H2M12387N (antibody, V domains shown, also called H2aM12387N) VH: QVQLEESGGGVVKAGGSLRLSCAASGFTFSDYYMNWIRQAPGKGLEWVSYINNGGYTIYYADSVKGRFTMSRDNAKNSVYLQMNGLRAEDTAFYYCVRDPRSYYGFDYWGQGTLVIVSS VL: DIQMTQSPSSLSASVGDRVTITCRASQSISRFLHWYQQKPGKAPKLLIYGASSLQSGVPSRFSGSGSGTDFTLTISSLQPEDFATYYCQQSYSTPPITFGQGTRLEIK shows koff of no less than 0.0006 s⁻¹?
Ans. -1
